Where these numbers come from: patent US10597388B2

tested on: wheat (winter wheat, Triticum aestivum); assay: Test C greenhouse herbicide test, pre- and postemergence; type: in vivo; settings: Preemergence, 125 g ai/ha; scale 0 to 100, 0 is no effect, 100 is complete control
ASSAY_ENDPOINT: Plant response rating, Wheat

• Cc1ccc2sc(C)c(-c3c(O)c(C)nn(C)c3=O)c2c1 = 5
• Cc1nn(C)c(=O)c(-c2c(C)sc3ccc(Cl)cc23)c1O = 5
• COc1nn(C)c(=O)c(-c2c(C)ccc3ccccc23)c1O = 0
• CC(=O)Oc1c(C)nn(C)c(=O)c1-c1c(C)sc2ccc(C)cc12 = 0
• COC(=O)Oc1c(C)nn(C)c(=O)c1-c1c(C)sc2c(C)cc(C)cc12 = 0
• CCC(=O)Oc1c(Cl)nn(C)c(=O)c1-c1c(C)sc2ccc(Cl)cc12 = 20
• CCOC(=O)Oc1c(C)nn(C)c(=O)c1-c1c(C)sc2c(C)cc(C)cc12 = 0
• COc1nn(C)c(=O)c(-c2c(C)ccc3ccccc23)c1OC(=O)OC(C)C = 0
• Cc1cc(C)c2sc(C)c(-c3c(OC(=O)OC(C)C)c(C)nn(C)c3=O)c2c1 = 0
• Cc1cc(C)c2ccccc2c1-c1c(OS(C)(=O)=O)c(C)nn(C)c1=O = 0
• CCOC(=O)Oc1c(C)nn(C)c(=O)c1-c1c(C)sc2ccc(C)cc12 = 0

====

system: ryegrass, Italian (Italian ryegrass, Lolium multiflorum); assay: Test A greenhouse herbicide test, pre- and postemergence; format: in vivo; conditions: Postemergence, 500 g ai/ha; visual rating after approx. 10 d, 0 to 100 scale (0 no effect, 100 complete control)
ASSAY_ENDPOINT: Plant response rating, Ryegrass, Italian

- CCC(=O)Oc1c(Cl)nn(C)c(=O)c1-c1c(C)sc2ccc(Cl)cc12: 100
- Cc1cc(C)c2ccccc2c1-c1c(OS(C)(=O)=O)c(C)nn(C)c1=O: 100
- Cc1nn(C)c(=O)c(-c2ccc(Cl)c3ccccc23)c1OS(=O)(=O)N(C)C: 80
- COc1nn(C)c(=O)c(-c2c(C)sc3ccc(Cl)cc23)c1O: 100
- Cc1ccc2ccccc2c1-c1c(O)c(Cl)nn(C)c1=O: 100

====

tested on: johnsongrass (Sorghum halepense); assay: Test C greenhouse herbicide test, pre- and postemergence; assay type: in vivo; conditions: Preemergence, 125 g ai/ha; scale 0 to 100, 0 is no effect, 100 is complete control
Listing of entries alongside the reported Plant response rating, Johnsongrass.
ASSAY_ENDPOINT: Plant response rating, Johnsongrass

• Cc1cc(C)c2ccccc2c1-c1c(OS(C)(=O)=O)c(C)nn(C)c1=O = 50
• CCC(=O)Oc1c(Cl)nn(C)c(=O)c1-c1c(C)sc2ccc(Cl)cc12 = 0
• CC(=O)Oc1c(Br)nn(C)c(=O)c1-c1c(C)ccc2ccccc12 = 10
• Cc1ccc2sc(C)c(-c3c(O)c(C)nn(C)c3=O)c2c1 = 5
• Cc1ccc2ccc(C)c(-c3c(O)c(C)nn(C)c3=O)c2c1 = 40
• COc1nn(C)c(=O)c(-c2c(C)ccc3ccccc23)c1OC(C)=O = 30
• CCOC(=O)Oc1c(C)nn(C)c(=O)c1-c1c(CC)ccc2ccccc12 = 5
• COC(=O)Oc1c(Br)nn(C)c(=O)c1-c1c(C)ccc2ccccc12 = 20
• Cc1sc2ccc(Cl)cc2c1-c1c(OS(C)(=O)=O)c(Cl)nn(C)c1=O = 0
